Each record here notes measured IC50 at 48 h.
- PROTOCOL_SUMMARY: Cytotoxicity against mouse L929 cells assessed as cell growth inhibition incubated for 48 hrs by MTT assay
- Format: toxicity, cell-based
Numbered stars: 1 amine (or outer) side, 2 acyl side, 3 side chain; on linkers, the order of the positions; unused ones are H or OH. Square brackets hold non-standard residues; d marks the D form. Peptide text beside a SMILES is read from it. X1 = O=C1c2ccccc2[C@@](O)(CN(Cc2ccccc2)[*:1])N1CC(=O)[*:2]; X2 = O=C1c2ccccc2[C@](O)(CN(Cc2ccccc2)[*:1])N1CC(=O)[*:2]; Thz = O=C(O)[C@@H]1CSCN1
REPORTED_ENDPOINT: IC50 at 48 h

CC[C@H](C)[C@@H]1NC(=O)[C@H](CC(C)C)NC(=O)[C@@H]2CCCN2C(=O)CN2C(=O)c3ccccc3[C@]2(O)CN(Cc2ccccc2)C(=O)[C@@H]2CCCN2C1=O (cyclo(IP[X2]PL)): > 400 µM
CC[C@H](C)[C@@H]1NC(=O)[C@H](CC(C)C)NC(=O)[C@@H]2CSCN2C(=O)[C@@H]2CSCN2C(=O)CN2C(=O)c3ccccc3[C@@]2(O)CN(Cc2ccccc2)C1=O: 70.9 µM
CC[C@H](C)[C@@H]1NC(=O)[C@H](CC(C)C)NC(=O)CN2C(=O)c3ccccc3[C@@]2(O)CN(Cc2ccccc2)C(=O)[C@@H]2CCCN2C(=O)[C@@H]2CCCN2C1=O (cyclo(IPP[X1]L)): 284 µM
CC[C@H](C)[C@@H]1NC(=O)CN2C(=O)c3ccccc3[C@]2(O)CN(Cc2ccccc2)C(=O)[C@H](CC(C)C)NC(=O)[C@@H]2CCCN2C(=O)[C@@H]2CCCN2C1=O (cyclo(IPPL[X2])): > 400 µM
CC[C@H](C)[C@@H]1NC(=O)CN2C(=O)c3ccccc3[C@]2(O)CN(Cc2ccccc2)C(=O)[C@H](CC(C)C)NC(=O)[C@@H]2CSCN2C(=O)[C@@H]2CSCN2C1=O (cyclo(I[Thz][Thz]L[X2])): > 400 µM
COc1cccc2c1C(=O)c1c(O)c3c(c(O)c1C2=O)C[C@@](O)(C(=O)CO)C[C@@H]3O[C@H]1C[C@H](N)[C@H](O)[C@H](C)O1 [DOXORUBICIN]: 326 µM
CC[C@H](C)[C@@H]1NC(=O)[C@H](CC(C)C)NC(=O)[C@@H]2CSCN2C(=O)CN2C(=O)c3ccccc3[C@]2(O)CN(Cc2ccccc2)C(=O)[C@@H]2CSCN2C1=O: 293 µM
CC[C@H](C)[C@@H]1NC(=O)[C@H](CC(C)C)NC(=O)CN2C(=O)c3ccccc3[C@@]2(O)CN(Cc2ccccc2)C(=O)[C@@H]2CSCN2C(=O)[C@@H]2CSCN2C1=O: 274 µM
CC[C@H](C)[C@@H]1NC(=O)[C@H](CC(C)C)NC(=O)[C@@H]2CCCN2C(=O)[C@@H]2CCCN2C(=O)CN2C(=O)c3ccccc3[C@]2(O)CN(Cc2ccccc2)C1=O (cyclo(I[X2]PPL)): > 400 µM
